targetSystem: Serotonin 3 (5-HT3) receptor
assayDetails: Effective concentration against 5-Hydroxytryptamine 3 receptor by measuring [14C]guanidinium uptake on NG108-15 cells.
Type: functional, cell-based
pEC50: −log10 of the molar value.
Criterion: pEC50 meeting or surpassing 8. Met: criterion met. Not met: criterion not met.

sampleSmiles: CN1CCN(c2nc3ccccc3c3ccnn23)CC1
class: criterion met

Moving on to the next compound.
Say whether c1ccc(CN2CCN(c3nc4cccnc4n4cccc34)CC2)cc1 shows pEC50 of 8 or more.
criterion not met

---

targetSystem: Serotonin 3 (5-HT3) receptor (Rattus norvegicus, UniProt P35563+Q9JJ16)
Sequence (P35563 whole entry): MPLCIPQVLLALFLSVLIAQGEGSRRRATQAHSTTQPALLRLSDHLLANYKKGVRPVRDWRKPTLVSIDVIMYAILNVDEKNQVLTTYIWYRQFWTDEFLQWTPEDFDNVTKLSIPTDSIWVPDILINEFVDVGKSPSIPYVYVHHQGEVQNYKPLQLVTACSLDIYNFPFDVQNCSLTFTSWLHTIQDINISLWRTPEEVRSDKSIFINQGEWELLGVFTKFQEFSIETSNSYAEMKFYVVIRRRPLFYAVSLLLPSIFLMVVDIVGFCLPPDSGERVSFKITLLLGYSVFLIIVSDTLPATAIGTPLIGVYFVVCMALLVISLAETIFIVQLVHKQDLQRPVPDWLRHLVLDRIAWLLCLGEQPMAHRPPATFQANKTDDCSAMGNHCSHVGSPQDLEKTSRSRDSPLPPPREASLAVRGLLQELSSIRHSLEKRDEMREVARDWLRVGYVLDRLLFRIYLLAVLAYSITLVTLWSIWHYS
Sequence (Q9JJ16 whole entry): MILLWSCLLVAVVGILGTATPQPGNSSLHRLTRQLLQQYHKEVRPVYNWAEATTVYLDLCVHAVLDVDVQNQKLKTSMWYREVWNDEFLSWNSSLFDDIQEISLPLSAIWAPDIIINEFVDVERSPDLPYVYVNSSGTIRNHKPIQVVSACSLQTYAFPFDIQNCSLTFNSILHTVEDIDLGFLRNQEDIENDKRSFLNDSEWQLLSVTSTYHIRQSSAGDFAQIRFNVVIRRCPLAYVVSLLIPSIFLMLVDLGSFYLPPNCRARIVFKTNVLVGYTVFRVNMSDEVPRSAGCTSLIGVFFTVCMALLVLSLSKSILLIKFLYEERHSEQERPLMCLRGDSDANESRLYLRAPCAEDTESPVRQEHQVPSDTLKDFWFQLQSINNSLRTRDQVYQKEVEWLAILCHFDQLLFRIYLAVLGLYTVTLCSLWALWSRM
assayDetails: The compound was tested for the binding affinity against 5-hydroxytryptamine 3 receptor using [3H]zacopride as radioligand.
Format: protein-complex assay
pKi: −log10 of the molar value.
Outcome: True for pKi of at least 8; False for anything lower.

sampleSmiles: Cc1cccc2nc(N3CCNCC3)c3cccn3c12
class: True

sampleSmiles: Cc1cccc2nc(N3CCN(C)CC3)c3cccn3c12
class: True

sampleSmiles: Cc1[nH]c2ccc(O)cc2c1CCN
class: False

Confirm if pKi reported for the compound c1csc(CN2CCN(c3nc4cccnc4n4cccc34)CC2)c1 is 8 or above.
True
